B1: CPEB3 Ribozyme (parent)
chain: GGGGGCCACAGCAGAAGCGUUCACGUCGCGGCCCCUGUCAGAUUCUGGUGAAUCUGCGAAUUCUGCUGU

- Variants of: B1
- assay.name: self-cleavage, relative activity (ratio to wild type); higher = more cleavage; co-transcriptional
Given measured self-cleavage, output Yes if it is greater than or equal to 0.2 and No if not.

1) G1C G41C : Yes
2) G50C A59C : Yes
3) C39G A59C : Yes
4) C6A G65C : No
5) C6G C34G : No
6) C18A A23G : No
7) A23C U49A : Yes
8) C24G U61A : No
9) G19A C27A : No
10) C22U C45G : Yes
11) A16C G65U : No
12) G17C G48C : No
13) G11C C24U : Yes
14) G14C U61A : Yes
15) A15G C24A : Yes
16) G2U A42C : No
17) U49A G50C : Yes
18) U21C U43G : Yes
19) C57U U67C : Yes
20) C6A C66U : Yes
21) G2C C22A : No
